test-protocol: Bioavailability of CTO given orally as solid in capsule or as liquid in PEG-400; CAI in plasma by HPLC/MS
Type: in vivo, dogs
conditions-used: female, dog, plasma, po, 685 mg/kg, capsule, single dose 685 mg/kg, female dog
endpoint-label: Cmax
Please make sure the unit comes right after the number.

Ask: Supply measured Cmax of NC(=O)c1nnn(Cc2cc(Cl)c(C(=O)c3ccc(Cl)cc3)c(Cl)c2)c1N in your reply.
Reply: 7950 ng/mL

###

test-protocol: Bioavailability of CTO given orally as solid in capsule or as liquid in PEG-400; CAI in plasma by HPLC/MS
Format: in vivo, dogs
conditions-used: both sexes, dog, plasma; oral gavage in PEG400, single dose 685 mg/kg, dogs; read-out: Bioavailability relative to Group 1 (capsule, 100%)
endpoint-label: bioavailability
Please make sure the unit comes right after the number.

Ask: Supply measured bioavailability of NC(=O)c1nnn(Cc2cc(Cl)c(C(=O)c3ccc(Cl)cc3)c(Cl)c2)c1N in your reply.
Reply: 81.8%
